Where do the numbers come from? From PubChem BioAssay AID1159580.

# Experiment Description: chemical genetic growth profiling, strain panel (AID 1159580);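 note: tested at 20 µM; growth read once vehicle control cultures reached saturation at 30 °C; 1 = growth at the plate median or of vehicle wells; lower values mean less growth of the strain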
# Measurement Parameters: S. cerevisiae deletion strains, growth OD, locus YPR163C, strain tif3, hits give low values
The whole screen tested about 5,500 compounds, of which about 2,000 (36%) were called active. Roughly 18% stayed inconclusive and do not appear here. Some of the results follow.
Measured Quantity: normalized growth
Give only the figure.

{"Molecule": "CC(CCc1ccccc1)NC(C)C(O)c1ccc(O)cc1 (configuration not stated)", "Measured Quantity": "normalized growth", "Readout Number": 0.986}
{"Molecule": "CCC(=O)O[C@H]1[C@H](O[C@@H]2[C@@H](C)[C@H](O[C@H]3C[C@@](C)(OC)[C@@H](O)[C@H](C)O3)[C@@H](C)C(=O)O[C@H](CC)[C@@](C)(O)[C@H](O)[C@@H](C)C(=O)[C@H](C)C[C@@]2(C)O)O[C@H](C)C[C@@H]1N(C)C", "Measured Quantity": "normalized growth", "Readout Number": 0.829}
{"Molecule": "CC(C)(OC(=O)c1ccccc1)[C@@H]1Cc2cc3ccc(=O)oc3cc2O1", "Measured Quantity": "normalized growth", "Readout Number": 0.973}
{"Molecule": "COc1cc(NS(=O)(=O)c2ccc(N)cc2)nc(OC)n1", "Measured Quantity": "normalized growth", "Readout Number": 0.973}
{"Molecule": "COP(=O)(OC)OC=C(Cl)Cl", "Measured Quantity": "normalized growth", "Readout Number": 0.995}

So for COc1cc(O)c(C(=O)/C=C/c2ccccc2)c(OC)c1 , the logged normalized growth turned out to be 0.605

So for CC(=O)[C@H]1CCC2C3CCC4=CC(=O)CC[C@]4(C)C3CC[C@@]21C (some centres not stated) , the logged normalized growth turned out to be 0.527

So for CC(NCCc1ccc(O)cc1)C(O)c1ccc(O)cc1 (configuration not stated) , the logged normalized growth turned out to be 0.982

So for C[N+](C)(C)CCOC(N)=O , the logged normalized growth turned out to be 0.985

So for CC(=O)OCC[N+](C)(C)C , the logged normalized growth turned out to be 1.01

So for CC1/C(=N\O)C[C@@H]2C[C@H]1C2(C)C (some centres not stated) , the logged normalized growth turned out to be 1.03

So for CNC(C)[C@H](O)c1ccccc1 (some centres not stated) , the logged normalized growth turned out to be 0.998

So for Cc1cc(O)c(C=O)c(O)c1C(=O)O , the logged normalized growth turned out to be 1

So for CC(=O)OC(C)(C)[C@@H]1Cc2cc3ccc(=O)oc3cc2O1 , the logged normalized growth turned out to be 1

* * *

# Experiment Description: chemical genetic growth profiling, strain panel (AID 1159580)
# Measurement Parameters: S. cerevisiae deletion strains, growth OD, locus YLR370C, strain arc18, hits give low values
Out of some 5,500 compounds screened, about 2,000 (36%) were called active. Inconclusive results (about 18%) are left out. Some of the results follow.
Measured Quantity: normalized growth

Would you please look over these solved cases?
{"Compound": "CC(=O)O[C@@H]1C[C@@]2(C)C(CC[C@@H]2C(C)=O)C2CCC3=CC(=O)CC[C@]3(C)C21 (some centres not stated)", "normalized growth": "1 (inactive)"}
{"Compound": "CCN(CC)CCNC(=O)c1cc(Br)c(N)cc1OC", "normalized growth": "0.994 (inactive)"}
{"Compound": "CCOC(=O)C(=O)C1(C(=O)OCC)Oc2cc(OC)cc(OC)c2C(=O)C1c1ccccc1 (configuration not stated)", "normalized growth": "0.938 (inactive)"}
{"Compound": "Cc1cccc(C)c1OCC(C)N (configuration not stated)", "normalized growth": "1.01 (inactive)"}
{"Compound": "C[C@]12CCC(=O)C=C1CCC1C2CC[C@@]2(C)C1CC[C@@H]2O (some centres not stated)", "normalized growth": "0.988 (inactive)"}
{"Compound": "CCN(CC)CCCC(C)Nc1ccnc2cc(Cl)ccc12 (configuration not stated)", "normalized growth": "1.02 (inactive)"}
{"Compound": "ClC1=C(Cl)C2(Cl)C3C4C=CC(C4)C3C1(Cl)C2(Cl)Cl (configuration not stated)", "normalized growth": "0.997 (inactive)"}
{"Compound": "CN(C)C(=S)SSC(=S)N(C)C", "normalized growth": "0.0609 (active)"}
{"Compound": "CC(=O)NC1SCCC1=O (configuration not stated)", "normalized growth": "0.992 (inactive)"}
{"Compound": "CCCCNc1cc(C(=O)O)cc(S(N)(=O)=O)c1Oc1ccccc1", "normalized growth": "1.01 (inactive)"}

So for CCCCCCCCCCCCCCCC[N+](C)(C)C , the logged normalized growth turned out to be 0.061 (active)

So for CC(=O)[C@H]1CCC2C3CCC4=CC(=O)CC[C@]4(C)C3CC[C@@]21C (some centres not stated) , the logged normalized growth turned out to be 0.957 (inactive)

* * *

Measured normalized growth of individual entries
# Experiment Description: chemical genetic growth profiling, strain panel (AID 1159580);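 note: tested at 20 µM; growth read once vehicle control cultures reached saturation at 30 °C; 1 = growth at the plate median or of vehicle wells; lower values mean less growth of the strain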
# Measurement Parameters: S. cerevisiae deletion strains, growth OD, locus YNL183C, strain NPR1, hits give low values
The whole screen tested about 5,500 compounds, of which about 2,000 (36%) were called active. Not shown: some 18% with an inconclusive outcome. Some of the results follow.
Give only the figure.

Would you please look over these solved cases?
{"Molecule": "S=C(Nc1ccc(Cl)cc1Cl)N(c1cccc(Cl)c1)c1nc2ccccc2s1", "Measured Quantity": "normalized growth", "Readout Number": 0.817}
{"Molecule": "O=C(N/C=C/c1ccsc1)Nc1cc(C(F)(F)F)cc(C(F)(F)F)c1", "Measured Quantity": "normalized growth", "Readout Number": 0.309}
{"Molecule": "Cc1ncc(CSSCc2cnc(C)c(O)c2CO)c(CO)c1O", "Measured Quantity": "normalized growth", "Readout Number": 0.948}
{"Molecule": "Cc1ccc(/C=C2\\CSc3ccc(F)cc3C2=O)cc1", "Measured Quantity": "normalized growth", "Readout Number": 0.903}
{"Molecule": "C=C(C)[C@@H]1[C@H]2OC(=O)[C@@H]1[C@]1(O)C[C@H]3O[C@]34C(=O)O[C@H]2[C@]14C", "Measured Quantity": "normalized growth", "Readout Number": 0.954}

So for CCN(CCO)CCCC(C)Nc1ccnc2cc(Cl)ccc12 (stereo unspecified) , the logged normalized growth turned out to be 0.952

So for CC(CCc1ccccc1)NC(C)C(O)c1ccc(O)cc1 (stereo unspecified) , the logged normalized growth turned out to be 0.944

* * *

Measured normalized growth of individual entries
# Experiment Description: chemical genetic growth profiling, strain panel (AID 1159580);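 note: tested at 20 µM; growth read once vehicle control cultures reached saturation at 30 °C; 1 = growth at the plate median or of vehicle wells; lower values mean less growth of the strain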
# Measurement Parameters: S. cerevisiae deletion strains, growth OD, locus YEL037C, strain rad23, hits give low values
The campaign covered roughly 5,500 compounds. About 2,000 (36%) were called active. Roughly 18% stayed inconclusive and do not appear here. Some of the results follow.
Give only the figure.

{"Compound": "COc1ccc2cc([C@H](C)CO)ccc2c1", "Readout Number": 1.01}
{"Compound": "Cc1cc(O)c(C=O)c(O)c1C(=O)O", "Readout Number": 0.993}
{"Compound": "S=c1nc[nH]c2nc[nH]c12", "Readout Number": 0.977}

So for CC(=O)O[C@@H]1C[C@@]2(C)C(CC[C@@H]2C(C)=O)C2CCC3=CC(=O)CC[C@]3(C)C21 (some centres not stated) , the logged normalized growth turned out to be 1.01

So for CCOC(=O)c1c(C)cc(O)c(C=O)c1O , the logged normalized growth turned out to be 0.71

So for CC(C(=O)O)c1cccc(C(=O)c2ccccc2)c1 (configuration not stated) , the logged normalized growth turned out to be 0.987

So for CCOC(=O)[C@H](CCc1ccccc1)N[C@H]1CCc2ccccc2N(CC(=O)O)C1=O , the logged normalized growth turned out to be 0.982

So for CCC(=O)O[C@H]1CCC2C3CCC4=CC(=O)CC[C@]4(C)C3CC[C@@]21C (some centres not stated) , the logged normalized growth turned out to be 0.96

* * *

# Experiment Description: chemical genetic growth profiling, strain panel (AID 1159580);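 note: tested at 20 µM; growth read once vehicle control cultures reached saturation at 30 °C; 1 = growth at the plate median or of vehicle wells; lower values mean less growth of the strain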
# Measurement Parameters: S. cerevisiae deletion strains, growth OD, locus YJL157C, strain FAR1, hits give low values
Out of some 5,500 compounds screened, about 2,000 (36%) were called active. Roughly 18% stayed inconclusive and do not appear here. The list shows a part of the results.
Measured Quantity: normalized growth
Give only the figure.

{"Smiles": "Cc1cc(Cl)ccc1NNC(=O)c1ccno1", "normalized growth": 0.919}
{"Smiles": "S=C(Nc1ccc(Cl)cc1Cl)N(c1cccc(Cl)c1)c1nc2ccccc2s1", "normalized growth": 0.794}
{"Smiles": "CCOC(=O)CSC(=S)NCc1ccc(C)cc1", "normalized growth": 0.963}

So for Cc1cc(C(=O)NNc2ccc(F)cc2F)no1 , the logged normalized growth turned out to be 0.931

So for Cc1nnsc1C(=O)NNc1c(Cl)cccc1Cl , the logged normalized growth turned out to be 0.939
